Would you mind telling me the reported melting point of each entry?

Given the molecule COc1nc(-c2cc(Cl)sc2Cl)cc(-c2ccc(Cl)cc2)c1C#N [5c] , what is its reported melting point?
195 to 196 °C

Then what about the molecule COc1cc(-c2ccccc2)cc(-c2cc(Cl)sc2Cl)n1 [6a] ?
127 to 128 °C

Then what about the molecule COc1nc(-c2cc(Cl)sc2Cl)cc(-c2ccc(Br)cc2)c1C#N [5d] ?
214 to 215 °C

Then what about the molecule COc1cc(-c2ccc(C)cc2)cc(-c2cc(Cl)sc2Cl)n1 [6b] ?
150 to 151 °C

Then what about the molecule COc1nc(-c2cc(Cl)sc2Cl)cc(-c2ccc([N+](=O)[O-])cc2)c1C#N [5h] ?
204 to 205 °C

Source of measurements: paper PMC6891325
